Target: hmGluR1 receptor (Homo sapiens)
Construct: expressed in transfected cells
Assay: IC50 determination: intracellular calcium mobilization (FLIPR) upon Quisqualate stimulation in CHO cells stably expressing hmGluR1
Assay type: cell-based
Conditions: against Quisqualate 1 μM (EC80), class symbols, read-out: mGIuR 1 IC50
pIC50: −log10 of the molar value.
Experimental Endpoint: pIC50

{"Compound": "Cc1ccc(-n2cnc3c(sc4nc(N5CCOCC5)cc(N(C)C)c43)c2=O)cc1 [59C]", "Experimental Endpoint": "pIC50", "Obs Value": "< 6.00"}
{"Compound": "CN(C)c1cc(C#N)nc2sc3c(=O)n(C4CCCCC4)cnc3c12 [compound 84]", "Experimental Endpoint": "pIC50", "Obs Value": "6.82 to 7.30"}

Input: Recorded pIC50 of CN(C)c1ccnc2sc3c(=O)n(-c4ccc(Cl)cc4I)cnc3c12 [7N] , please.
Output: 6.00 to 6.82

Input: pIC50 for C=CCNc1ccnc2sc3c(=O)n(-c4ccc(C)cc4)cnc3c12 [72I] ?
Output: > 7.30

----------
Let's look at some compounds and their measured IC50.
Biological target: hmGluR1 receptor (Homo sapiens)
Construct: expressed in transfected cells
Test: IC50 determination: intracellular calcium mobilization (FLIPR) upon Quisqualate stimulation in CHO cells stably expressing hmGluR1
Format: cell-based
Conditions: against Quisqualate 1 μM (EC80), FLIPR calcium mobilization, read-out: mGluR1 IC50

Worked examples, 2 compounds total:
{"Compound": "CCN(C)c1ccnc2sc3c(=O)n(-c4ccc(Cl)cc4)cnc3c12 [28IC]", "Experimental Endpoint": "IC50", "Obs Value": "2.09 nM"}
{"Compound": "CN(c1ncnc2sc3c(=O)n(-c4ccc(Br)cc4)cnc3c12)C1CC1 [95DV]", "Experimental Endpoint": "IC50", "Obs Value": "1.94 nM"}

Continue with the next compound.
Input: // map C#CCNc1ccnc2sc3c(=O)n(-c4ccc(C)cc4)cnc3c12 [28Z] to recorded IC50 (system: hmGluR1 receptor (Homo sapiens))
Output: 1.47 nM

----------
Target: hmGluR1 receptor (Homo sapiens, UniProt Q13255)
Construct: expressed in transfected cells
Sequence (Q13255 19-1194): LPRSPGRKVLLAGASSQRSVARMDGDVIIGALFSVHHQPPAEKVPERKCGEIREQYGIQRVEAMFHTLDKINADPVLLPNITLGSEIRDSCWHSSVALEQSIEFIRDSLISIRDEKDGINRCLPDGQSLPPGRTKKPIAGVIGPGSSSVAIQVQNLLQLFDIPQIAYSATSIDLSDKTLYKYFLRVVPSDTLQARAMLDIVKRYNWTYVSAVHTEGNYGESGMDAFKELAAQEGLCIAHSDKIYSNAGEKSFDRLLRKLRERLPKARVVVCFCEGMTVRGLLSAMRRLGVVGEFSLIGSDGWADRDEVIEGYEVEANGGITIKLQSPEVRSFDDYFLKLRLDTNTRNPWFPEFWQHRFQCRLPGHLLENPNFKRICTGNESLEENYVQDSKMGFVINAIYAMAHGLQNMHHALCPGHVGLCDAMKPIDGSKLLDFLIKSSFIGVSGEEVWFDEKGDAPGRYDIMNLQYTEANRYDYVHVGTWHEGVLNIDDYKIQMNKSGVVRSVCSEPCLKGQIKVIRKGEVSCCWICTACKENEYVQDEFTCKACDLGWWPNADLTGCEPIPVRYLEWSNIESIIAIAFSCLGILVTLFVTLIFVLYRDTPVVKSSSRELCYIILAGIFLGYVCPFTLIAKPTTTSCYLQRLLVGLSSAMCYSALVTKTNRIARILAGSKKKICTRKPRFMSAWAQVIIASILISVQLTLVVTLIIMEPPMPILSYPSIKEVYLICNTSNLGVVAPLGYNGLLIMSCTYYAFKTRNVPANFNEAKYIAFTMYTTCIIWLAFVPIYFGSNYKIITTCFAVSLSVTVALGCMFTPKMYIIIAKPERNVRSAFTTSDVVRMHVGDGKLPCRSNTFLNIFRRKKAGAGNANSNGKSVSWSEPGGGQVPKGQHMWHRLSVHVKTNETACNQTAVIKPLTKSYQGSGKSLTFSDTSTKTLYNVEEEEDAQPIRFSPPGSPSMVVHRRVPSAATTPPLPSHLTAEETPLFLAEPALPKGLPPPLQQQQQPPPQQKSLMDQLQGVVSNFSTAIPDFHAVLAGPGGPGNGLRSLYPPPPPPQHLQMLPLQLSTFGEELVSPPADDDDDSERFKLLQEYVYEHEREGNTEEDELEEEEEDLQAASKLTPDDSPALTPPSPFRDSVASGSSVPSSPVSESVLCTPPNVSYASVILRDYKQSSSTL
Assay: IC50 determination: intracellular calcium mobilization (FLIPR) upon Quisqualate stimulation in CHO cells stably expressing hmGluR1
Assay type: cell-based
Conditions: against Quisqualate 1 μM (EC80), class symbols, read-out: mGIuR 1 IC50
pIC50: −log10 of the molar value.
Experimental Endpoint: pIC50

Please review the following examples before continuing.
{"Molecule": "CN(C)c1cncc2sc3c(=O)n(-c4ccc(Cl)cc4)cnc3c12 [37E]", "pIC50": "> 7.30"}
{"Molecule": "CN(C)c1ccnc2sc3c(=O)n(C4CCCCCC4)cnc3c12", "pIC50": "> 7.30"}
{"Molecule": "CCNc1ncnc2sc3c(=O)n(-c4ccc(OC(F)F)cc4)cnc3c12 [95W]", "pIC50": "> 7.30"}

Input: Look at this molecule and give its reported pIC50. CN(C)c1ccnc2sc3c(=O)n(-c4ccc5c(c4)CC=C5)cnc3c12
Output: > 7.30

Input: For CN(C)c1ccnc2sc3c(=O)n(-c4ccc(C(F)(F)F)cc4)cnc3c12 , what is its reported pIC50?
Output: > 7.30

Input: What value of pIC50 has been recorded for this entry: CN(C)c1ccnc2sc3c(=O)n(-c4ccc5[nH]c(=O)[nH]c5c4)cnc3c12
Output: 6.00 to 6.82

----------
Biological target: hmGluR1 receptor (Homo sapiens)
Construct: expressed in transfected cells
Experiment: IC50 determination: intracellular calcium mobilization (FLIPR) upon Quisqualate stimulation in CHO cells stably expressing hmGluR1
Type: cell-based
Conditions: against Quisqualate 1 μM (EC80), class symbols, read-out: mGIuR 1 IC50
Method: A CHO cell line stably expressing hmGluR1 receptor was established. One day prior to assay, cells were split in growth media at concentration of 50,000 cells/well in a volume of 100 μl and seeded into black clear-bottom 96-well plates. After two to six hours, when cells were well attached to the plate, growth medium was replaced with assay medium (100 μL) consisting of DMEM high glucose, supplemented with GPT (1 U/mL) and Sodium pyruvate, 1 mM. […]
pIC50: −log10 of the molar value.
Experimental Endpoint: pIC50

{"Compound": "COc1ccc(-n2cnc3c(sc4nccc(N(C)C)c43)c2=O)c(C)c1", "Obs Value": "> 7.30"}
{"Compound": "CN1CCN(c2ccnc3sc4c(=O)n(C5CCCCC5)cnc4c23)CC1 [61A]", "Obs Value": "< 6.00"}
{"Compound": "CN(C)c1ccc(C#N)c2sc3c(=O)n(C4CCCCC4)cnc3c12", "Obs Value": "< 6.00"}
{"Compound": "O=c1c2sc3nccc(NC4CC4)c3c2ncn1C1CCCCC1 [28S]", "Obs Value": "> 7.30"}
{"Compound": "COc1ccc(-n2cnc3c(sc4cncc(N(C)C)c43)c2=O)cc1 [37F]", "Obs Value": "6.82 to 7.30"}

Input: Checklist item: pIC50 tested on hmGluR1 receptor (Homo sapiens), entry CCCN(CCC)c1ccnc2sc3c(=O)n(C4CCCCC4)cnc3c12 [28K] , value?
Output: < 6.00

Input: Fill in the recorded pIC50 for this compound, with hmGluR1 receptor (Homo sapiens) as test system: Cc1ccc(-n2cnc3c(sc4nccc(OC5CCCC5)c43)c2=O)cc1 [66C]
Output: < 6.00

Input: Reported pIC50 for hmGluR1 receptor (Homo sapiens), given CN(C)c1ccnc2sc3c(=O)n(-c4ccccc4)cnc3c12 ?
Output: > 7.30

Input: Value wanted: pIC50 (hmGluR1 receptor (Homo sapiens)) of entry COc1ccc(-n2cnc3c(sc4nccc(N(C)C)c43)c2=O)c(F)c1
Output: > 7.30

Input: // lookup pIC50 | system=hmGluR1 receptor (Homo sapiens) | key= CCOc1ccc(-n2cnc3c(sc4nccc(N(C)C)c43)c2=O)cc1
Output: 6.00 to 6.82

----------
Target: hmGluR1 receptor (Homo sapiens)
Construct: expressed in transfected cells
Assay: IC50 determination: intracellular calcium mobilization (FLIPR) upon Quisqualate stimulation in CHO cells stably expressing hmGluR1
Type: cell-based
Conditions: against Quisqualate 1 μM (EC80), FLIPR calcium mobilization, read-out: IC50 Class
pIC50: −log10 of the molar value.
Experimental Endpoint: pIC50

Input: Would you kindly share the measured pIC50 for C#CCNc1ncnc2sc3c(=O)n(-c4ccc(Cl)cc4)cnc3c12 [95EG] ?
Output: > 7.30

Input: # query: pIC50 of entry CN(c1ncnc2sc3c(=O)n(-c4ccc(Br)cc4)cnc3c12)C1CC1 [95DV]
Output: > 7.30

Input: Need pIC50, item C=CCNc1ncnc2sc3c(=O)n(-c4ccc(OC)cc4)cnc3c12 [95GP]
Output: > 7.30

Input: I have this molecule here, Nc1c(Br)cnc2sc3c(=O)n(-c4ccc(Cl)cc4)cnc3c12 , and I need its recorded pIC50.
Output: > 7.30

Input: Could you share which pIC50 value was measured for C=CCNc1ccnc2sc3c(=O)n(-c4ccc(OC)c(F)c4)cnc3c12 [28DT] ?
Output: > 7.30

Input: Consider the molecule O=c1c2sc3nccc(Cl)c3c2ncn1-c1ccc(Cl)cc1 [57E] and give its measured pIC50.
Output: 6.00 to 6.82

Input: Any idea what its pIC50 is? The molecule is C=CCNc1ncnc2sc3c(=O)n(-c4ccc5scnc5c4)cnc3c12 [95BM]
Output: > 7.30

Input: What does the record list as pIC50 for C=CCNc1ncnc2sc3c(=O)n(-c4ccc(OC)c(F)c4)cnc3c12 [95BN] ?
Output: 6.82 to 7.30

Input: What value of pIC50 has been reported for the following molecule? C#CCNc1ncnc2sc3c(=O)n(-c4ccc5sccc5c4)cnc3c12 [95EP]
Output: 6.00 to 6.82

----------
Target: hmGluR1 receptor (Homo sapiens)
Construct: expressed in transfected cells
Assay: IC50 determination: intracellular calcium mobilization (FLIPR) upon Quisqualate stimulation in CHO cells stably expressing hmGluR1
Format: cell-based
Conditions: against Quisqualate 1 μM (EC80), class symbols, read-out: mGIuR 1 IC50
Experimental Endpoint: IC50

Input: I'd like to know its IC50. The compound in question is CNc1ccnc2sc3c(=O)n(-c4ccccc4)c(C)nc3c12 [113E]
Output: < 50 nM

Input: # query: IC50 of entry CN(C)c1ccnc2sc3c(=O)n(C4CC4)cnc3c12 [15K]
Output: > 1000 nM

Input: Requested field: IC50. Item: Cc1ccc(-n2c(C(F)(F)F)nc3c(sc4nccc(N(C)C)c43)c2=O)cc1 [117A]
Output: 150 to 1000 nM

Input: Which IC50 reading was recorded for the compound Cc1nc2cc(-n3cnc4c(sc5nccc(N(C)C)c54)c3=O)ccc2s1 ?
Output: > 1000 nM

Input: // IC50 lookup, key: Cc1ccc(-n2cnc3c(sc4nccc(N(C)N)c43)c2=O)cc1 [28AE]
Output: < 50 nM

Input: Record request: IC50 value, item CN(C)c1ccnc2sc3c(=O)n(-c4cccc(O)c4)cnc3c12
Output: < 50 nM

Input: Quick one: IC50 for CN(C)c1c([N+](=O)[O-])cnc2sc3c(=O)n(C4CCCCC4)cnc3c12 ?
Output: < 50 nM

Input: Given the compound Cc1cccc(-n2cnc3c(sc4nccc(N(C)C)c43)c2=O)n1 , what is its reported IC50?
Output: 50 to 150 nM

Input: Name the reported IC50 value associated with the compound COc1ccc(-n2cnc3c(sc4nc(C)cc(C)c43)c2=O)cc1
Output: 150 to 1000 nM
